Values were extracted from ChEMBL document CHEMBL4196087.

inhibition of growth at 10 µM reference
system: HOP-62; assay: Growth inhibition of human HOP62 cells at 10^-5 M incubated for 48 hrs by sulforhodamine B assay relative to control; format: functional; settings: HOP-62, 48 h, read-out: GI

NNC(=O)CN1CCN(c2cc3c(cc2F)c(=O)c(C(=O)O)cn3C2CC2)CC1; < 20%
O=C(CN1CCN(c2cc3c(cc2F)c(=O)c(C(=O)O)cn3C2CC2)CC1)N/N=C/c1ccc(Cl)cc1; < 20%
CSc1nnc(CN2CCN(c3cc4c(cc3F)c(=O)c(C(=O)O)cn4C3CC3)CC2)o1; < 20%
O=C(CN1CCN(c2cc3c(cc2F)c(=O)c(C(=O)O)cn3C2CC2)CC1)N/N=C/c1cc2ccccc2[nH]1; 29%

# input for lookup
Exercise: // lookup inhibition of growth at 10 µM for O=C(CN1CCN(c2cc3c(cc2F)c(=O)c(C(=O)O)cn3C2CC2)CC1)N/N=C/c1cccs1
Key: < 20%

----------
# Lookup of reported inhibition of growth at 10 µM keyed by entry
test system: RPMI-8226; assay: Growth inhibition of human RPMI8226 cells at 10^-5 M incubated for 48 hrs by sulforhodamine B assay relative to control; type: functional; details: RPMI-8226, 48 h, read-out: GI

O=C(CN1CCN(c2cc3c(cc2F)c(=O)c(C(=O)O)cn3C2CC2)CC1)N/N=C/c1cccs1; < 20%
COc1ccc(/C=N/NC(=O)CN2CCN(c3cc4c(cc3F)c(=O)c(C(=O)O)cn4C3CC3)CC2)cc1; < 20%
O=C(CN1CCN(c2cc3c(cc2F)c(=O)c(C(=O)O)cn3C2CC2)CC1)N/N=C/c1ccccc1C(F)(F)F; 25%

Lab note: next compound to report on.
Exercise: // returns reported inhibition of growth at 10 µM for input O=C(CN1CCN(c2cc3c(cc2F)c(=O)c(C(=O)O)cn3C2CC2)CC1)N/N=C/c1cc2ccccc2[nH]1
Key: < 20%

----------
Below, each entry is listed with its recorded inhibition of growth at 10 µM.
system: IGROV-1; assay: Growth inhibition of human IGROV1 cells at 10^-5 M incubated for 48 hrs by sulforhodamine B assay relative to control; type: functional; settings: IGROV-1, 48 h, read-out: GI

Consider the reported inhibition of growth at 10 µM for these molecules:
O=C(CN1CCN(c2cc3c(cc2F)c(=O)c(C(=O)O)cn3C2CC2)CC1)N/N=C/c1cccs1; < 20%
NNC(=O)CN1CCN(c2cc3c(cc2F)c(=O)c(C(=O)O)cn3C2CC2)CC1; < 20%
O=C(CN1CCN(c2cc3c(cc2F)c(=O)c(C(=O)O)cn3C2CC2)CC1)N/N=C/c1ccccc1C(F)(F)F; 33.4%
COc1ccc(/C=N/NC(=O)CN2CCN(c3cc4c(cc3F)c(=O)c(C(=O)O)cn4C3CC3)CC2)cc1; < 20%

Exercise: Field request: inhibition of growth at 10 µM | item: O=C(CN1CCN(c2cc3c(cc2F)c(=O)c(C(=O)O)cn3C2CC2)CC1)N/N=C/c1ccc(Cl)cc1
Key: < 20%

Exercise: What inhibition of growth at 10 µM value was documented for this molecule, O=C(CN1CCN(c2cc3c(cc2F)c(=O)c(C(=O)O)cn3C2CC2)CC1)N/N=C/c1cc2ccccc2[nH]1 ?
Key: 43.5%

Exercise: Entry O=C(CN1CCN(c2cc3c(cc2F)c(=O)c(C(=O)O)cn3C2CC2)CC1)N/N=C/c1c[nH]c2ccccc12 : reported inhibition of growth at 10 µM = ?
Key: < 20%
